Test: pKa of nanoparticle compositions
Assay type: physicochemical
Details: Table 20-1; rows without footnote mark

TEST SMILES | pKa
CCCCCCCCCCCCN(CCO)CCN(CCCCCCCCCCCC)CCCCCC(=O)OCCCCC | 6.60
CCCCC/C=C\C/C=C\CCCCCCCCN(CCCCCCCC/C=C\C/C=C\CCCCC)CCN(CCO)CCCCCCCCCCCC | 5.83
CCCCCCCCCCCCN(CCO)CCN(CCCCCCCCC)CCCCCCCCC | 6.31
CCCCCCCCCCCCN(CCCCCCCCCCCC)CCN(CCO)CCCCCC | 6.48
CCCCC/C=C\C/C=C\CCCCCCCCN(CCO)CCN(CCCCCCCCCCCC)CCCCCCCCCCCC | 6.23
CCCCCCCCCCCCN(CCCCO)CCN(CCCCCCCCCCCC)CCCCCCCCCCCC | 5.90
CCCCCCCCCCCCN(CCCCCCCCCCCC)CCN(CCO)CCCCCCCC(=O)OCCCCCCCCC | 6.43
CCCCCCCCCCCCN(CCO)CCN(CCCCCCCC(=O)OCCCCCCCCC)CCCCCCCC(=O)OCCCCCCCCC | 6.42

* * *

Reported Size (nm) values are given for each entry in this list.
Assay: Particle size and polydispersity index of nanoparticle compositions (Zetasizer Nano ZS)
Type: physicochemical
Conditions: Table 21-1
Experimental: A Zetasizer Nano ZS (Malvern Instruments Ltd, Malvern, Worcestershire, UK) can be used to determine the particle size, the polydispersity index (PDI) and the zeta potential of the nanoparticle compositions in 1×PBS in determining particle size and 15 mM PBS in determining zeta potential.
READOUT TYPE: Size (nm)

COMPOUND | RECORDED MEASUREMENT
CCCCC/C=C\C/C=C\CCCCCCCC1C(CCCCCCC/C=C\C/C=C\CCCCC)C1CN(C)C (centres unmarked) [Compound 21-6] | 86.8
CCCCCC=CCC=CCCCCCCCCC(CCCCCCCCC=CCC=CCCCCC)OC(=O)CCCN(C)C (centres unmarked) [MC3, reference compound] | 91.4
CCCCC/C=C\C/C=C\CCCCCCCCC1(CCCCCCCC/C=C\C/C=C\CCCCC)CCC(OC(=O)CCCN(C)C)C1 (centres unmarked) [Compound 21-4] | 94.9
CCCCC/C=C\C/C=C\CCCCCCCCC1(CCCCCCCC/C=C\C/C=C\CCCCC)CC(OC(=O)CCCN(C)C)C1 [Compound 21-2] | 83.0
CCCCC/C=C\C/C=C\CCCCCCCCC1(CCCCCCCC/C=C\C/C=C\CCCCC)CC1CN(C)C (centres unmarked) [Compound 21-1] | 119.9

* * *

Assay: Particle size and polydispersity index of nanoparticle compositions (Zetasizer Nano ZS)
Assay type: physicochemical
Conditions: Table 1; * formulated with lipid:DSPC:Chol:PEG-DMG 50:10:38.5:1.5
Returns one of Y or N; Y when Size (nm) is >= 90 nm.

TEST SMILES | CLASS ASSIGNMENT
CCCCCCCCCCCCCCN(CCCCCCCCCCCCCC)CCN1CCN(CCN(CCCCCCCCCCCC)CCN(CCCCCCCCCCCC)CCCCCCCCCCCC)CC1 | N
CCCCC/C=C\C/C=C\CCCCCCCCN(CCCCCCCC/C=C\C/C=C\CCCCC)CCN(CCCCCCCC/C=C\C/C=C\CCCCC)CCN1CCN(CCN(CCCCCCCCCCCC)CCCCCCCCCCCC)CC1 | N
CCCCC/C=C\CCCCCN(CCCCCCCCCCCC)CCN1CCN(CCN(CCCCCCCCCCCC)CCN(CCCCCCCCCCCC)CCCCCCCCCCCC)CC1 | Y
CCCCCCCCCN(CCCCCCCCC)CCN(CCCCCCCCC)CCN1CCNCC1 | Y
CCCCC/C=C\C/C=C\CCCCCCCCN(CCCCCCCC/C=C\C/C=C\CCCCC)CCN(CCCCCCCC/C=C\C/C=C\CCCCC)CCN1CCNCC1 | N
CCCCCCCC/C=C\CCCCCCCCN(CCCCCCCC/C=C\CCCCCCCC)CCN(CCCCCCCC/C=C\CCCCCCCC)CCN1CCNCC1 | N
CCCCCCCCCCCCN(CCCCCCCCCCCC)CCN1CCN(C(=O)CN(CCCCCCCCCCCC)CCN(CCCCCCCCCCCC)CCCCCCCCCCCC)CC1 | Y
CCCCCCCCCCCCN(CCCCCCCCCCCC)CCN(CCCCCCCCCCCC)CCN1CCNCC1 | N
